# measured.on: HA of A/Victoria/3/75 (H3N2) virus (influenza A virus, UniProt P03435 17-567)
# Sequence (P03435 17-567 limits assumed): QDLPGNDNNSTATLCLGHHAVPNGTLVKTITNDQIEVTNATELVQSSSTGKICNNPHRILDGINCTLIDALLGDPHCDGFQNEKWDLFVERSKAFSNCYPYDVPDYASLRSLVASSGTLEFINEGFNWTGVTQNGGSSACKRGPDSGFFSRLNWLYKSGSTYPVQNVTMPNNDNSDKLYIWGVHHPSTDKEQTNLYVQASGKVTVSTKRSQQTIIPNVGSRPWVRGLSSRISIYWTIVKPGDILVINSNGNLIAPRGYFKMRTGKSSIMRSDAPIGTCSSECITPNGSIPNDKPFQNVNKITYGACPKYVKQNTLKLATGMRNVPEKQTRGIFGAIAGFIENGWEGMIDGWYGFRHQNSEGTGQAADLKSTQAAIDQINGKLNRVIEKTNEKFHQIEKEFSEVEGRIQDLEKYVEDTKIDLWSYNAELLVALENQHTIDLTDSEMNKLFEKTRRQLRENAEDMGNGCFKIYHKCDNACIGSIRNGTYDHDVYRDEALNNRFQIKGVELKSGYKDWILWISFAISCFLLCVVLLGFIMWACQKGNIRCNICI
# protocol.text: cell-based or functional assay
measured.metric: Neutralization IC50, H3-Vic75 (µg/mL)
Give the number; µg/mL is assumed, so skip it.

Asked: Report Neutralization IC50, H3-Vic75 for Antibody 12 (antibody, V domains shown) VH: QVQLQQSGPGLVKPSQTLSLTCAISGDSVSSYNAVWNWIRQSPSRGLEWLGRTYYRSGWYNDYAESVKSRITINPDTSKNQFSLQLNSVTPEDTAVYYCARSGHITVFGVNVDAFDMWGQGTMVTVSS VL: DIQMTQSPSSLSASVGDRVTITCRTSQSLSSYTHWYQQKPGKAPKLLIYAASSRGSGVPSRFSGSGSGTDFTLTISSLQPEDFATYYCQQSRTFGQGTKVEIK please.
Given back: 0.32

Every entry's value here was drawn from patent US20200109188A1.
